- Test system: UACC-257 melanoma
- assay: NCI tumour cell line growth inhibition, 48 h; in the data active means GI50 below about 0.43 µM; inactive means the rest
Answer with one of the outcomes given here: active, inactive

Here's what some known entries look like.
How did this test come out for Cc1cnc2oc3ccc(O)cc3c2c1-c1ccccc1 ?
inactive

Lookup NC(=S)N/N=C1\c2ccccc2-c2c(F)c(F)c(F)c(F)c21
inactive

Lookup COC1=C(C)C(=O)c2c(c(CCCl)c3n2CCC3OC(C)=O)C1=O (centres undefined)
active

Lookup CN(C)CC(=O)Nc1ccc2ncnc(Nc3ccc(Oc4cccc(C(F)(F)F)c4)c(Cl)c3)c2c1
inactive

Lookup O=C(C=P(c1ccccc1)(c1ccccc1)c1ccccc1)CCl
inactive

Further cases:
How did this test come out for COc1cc([N+](=O)[O-])c(OC)cc1-c1nc2sc(C)cn2c1/C(N)=N/C(=N)N ?
inactive

Lookup Oc1c(Cl)cc(Cl)cc1/C=N/Nc1nnc(N/N=C/c2cc(Cl)cc(Cl)c2O)c2ccccc12
inactive

Lookup COc1ccc(C(=NN=C(N)N)c2ccc(OC)cc2)cc1
inactive

Lookup COc1cc(N2C(=O)[C@H](c3ccccc3)C2c2ccc(SC)cc2)cc(OC)c1OC (some centres undefined)
inactive

====

- System: SK-MEL-28 melanoma
- assay: NCI tumour cell line growth inhibition, 48 h
assay-metric: TGI

I am curious: what TGI value has been reported for N#Cc1ccc(-c2nc3c(N)nc(-c4ccccc4)nc3o2)cc1 ?
> 100 µM

Lookup O=C(NCCCl)Nc1cccnc1
> 100 µM

Turning to the following compound.
I am curious: what TGI value has been reported for N#Cc1c(NC(=O)c2ccc(F)cc2)sc2c1CCCC2 ?
> 25 µM

====

- Tested on: HCT-15 colon
- assay: NCI tumour cell line growth inhibition, 48 h
assay-metric: log10(TGI) (log10 of the value in µM)
The base-10 logarithm of TGI, taken with TGI in µM, is what appears here.

I'm curious: which log10(TGI) was measured for O=C(c1ccc(C(F)(F)F)c(Cl)c1)N(Cc1ccc(Cl)cc1)c1ccc(-c2cc(C(F)(F)F)[nH]n2)c(O)c1 tested on HCT-15 colon?
0.29

Further cases:
I'm curious: which log10(TGI) was measured for CCN1c2cc(Br)cc3[nH]c(=O)n(c23)CCC1C (stereo not given) tested on HCT-15 colon?
1.55

Lookup O=C(NCCCl)Nc1cccnc1
1.82

Lookup C/C=C(/C)C(=O)O[C@H]1[C@H]2[C@@H]([C@@H](OC(C)=O)[C@H](C)C(=O)[C@@]34C[C@@H](C)C(=O)[C@]3(/C=C(\C)[C@H]1OC(C)=O)O4)C2(C)C
0.76

Lookup CCOC(=O)C1=C(C)NC2=C(C(=O)N(c3ccccc3)C2c2ccccc2)C1c1ccccc1 (stereo not given)
1.51

Lookup Cc1[nH]c(=O)[nH]c(=O)c1/C=C/C(=O)NC(CO)CS(=O)CS(C)=O (stereo not given)
2.61

====

- System: CAKI-1 renal
- assay: NCI tumour cell line growth inhibition, 48 h
assay-metric: TGI

Before answering, review these 9 worked examples.
I'm curious: which TGI was measured for CC(C)(C)c1cc(/C=N/NC(=O)c2ccccc2NC(=O)c2cccs2)c(O)c(C(C)(C)C)c1 tested on CAKI-1 renal?
> 100 µM

Lookup COC(=O)c1ccccc1CC1Cc2cc3c(cc2C1=O)CCC3 (stereo not given)
> 100 µM

Lookup Cc1cc2nc(C=C(C(F)(F)F)C(F)(F)F)sc2cc1C
8.24 µM

Lookup O=C(C=P(c1ccccc1)(c1ccccc1)c1ccccc1)CCl
2.81 µM

Lookup CCOC(=O)Cn1c2ccc(Br)cc2c2nc3ccccc3nc21
> 100 µM

Lookup O=C(CCc1ccccc1)NS(=O)(=O)c1ccccc1
> 100 µM

Lookup CSc1nc2nn(Cc3ccccc3)cc2c(=O)[nH]1
> 100 µM

Lookup O=C(N/C(=C\c1cccc([N+](=O)[O-])c1)c1nc2ccccc2[nH]1)c1ccccc1
> 100 µM

Lookup NC(CCOCCP(=O)(O)CCC1C=CC=CC1)C(=O)O (stereo not given)
> 100 µM

Further cases:
I'm curious: which TGI was measured for O=c1cnnc(N/N=C/c2ccccc2O)[nH]1 tested on CAKI-1 renal?
> 100 µM

====

- Tested on: ACHN renal
- assay: NCI tumour cell line growth inhibition, 48 h; in the data active = GI50 below about 0.43 µM; inactive = the rest
Answer with one of the outcomes given here: true = active, false = inactive

Here's what some known entries look like.
How did this test come out for Cc1cnc2oc3ccc(O)cc3c2c1-c1ccccc1 ?
false

Lookup C#Cc1cccc(Nc2ncnc3ccc(OCCCCNCCS(C)(=O)=O)cc23)c1
false

Lookup O=Nc1c(-c2c(O)[nH]c3cc(Br)ccc23)[nH]c2ccccc12
false

Lookup CC(C)(C)CC(C)(C)c1ccc(O)c(Cc2ccc(Cl)cc2Cl)c1
false

Lookup COc1ccc(NC2=C(I)C(=O)c3ncccc3C2=O)cc1
false

Lookup COc1ccc(C(=NN=C(N)N)c2ccc(OC)cc2)cc1
false

Lookup COc1cc(/C=C/c2cc(/C=C/c3ccc(O)c(OC)c3)n(C(=O)Nc3ccccc3Cl)n2)ccc1O
true

Lookup Cc1ccc(C=C2C(Cl)=C(Cl)C(Cl)=C2Cl)cc1
false

Lookup CC1(C)N=C(N)N=C(N)N1c1ccc(OCCCNC(=O)Nc2cccc(S(=O)(=O)F)c2)c(Cl)c1
false

Lookup COc1ccc(CCN(CC(=O)N(CC(N)=O)C2CCC[C@@H]2OCc2ccccc2)C(=O)CN(C(=O)CN(CCc2ccc(Cl)cc2)C(=O)CN(C(=O)CN(C)Cc2ccccc2F)[C@H](C)C2CCCCC2)[C@H](C)C2CCCCC2)cc1OC (stereo partly drawn)
false

Further cases:
How did this test come out for CC(C)(C)c1cc(/C=N/NC(=O)c2ccccc2NC(=O)c2cccs2)c(O)c(C(C)(C)C)c1 ?
true

Lookup O=C1CC(c2ccccc2)Cc2nc3ccc(Br)cc3cc21 (stereo not drawn)
false

Lookup CC(C)[C@@](O)(c1ccc2cc(OC(F)F)c(OC(F)F)cc2c1)c1cn[nH]n1
false

====

- System: NCI-H226 lung
- assay: NCI tumour cell line growth inhibition, 48 h
Let's look at some compounds and their measured TGI.
Only the number, expressed in µM, is required.

Before answering, review these 3 worked examples.
I am curious: what TGI value has been reported for O=C1C=CC(=C(c2ccccc2)c2ccc(O)cc2)C=C1 ?
38

Lookup CC(=O)CC/C=C(\C)[C@H](O)[C@H](C)C(=O)O[C@H]1C[C@H](C)C=C2C=C[C@@]3(C)O[C@@H](O)CC(=O)[C@]3(C)[C@H]21
4.6

Lookup O=C(COc1cccc(/C=C2\CSc3ccc(Cl)cc3C2=O)c1)c1ccc(Cl)cc1
44.4

Further cases:
I am curious: what TGI value has been reported for Clc1cc(Cl)c(OCCCCCCN2CCNCC2)c(Cl)c1 ?
30.8

Lookup C=C1C[C@@H]2O[C@H]3[C@H]4[C@@H](C[C@@H](C)[C@@H](OC(C)=O)[C@H]42)[C@@H](C)CO[C@@]3(C)[C@H](OC(=O)CCCCCCC)C[C@H]1O
26.1

Lookup COc1ccc(C(=O)c2c3cc(OC)c(OC)c(OC)c3cc[n+]2C)cc1
65.2

Lookup COc1ccc(/C=C2\COc3ccc(O)c(O)c3C2=O)c(OC)c1OC
7.25

====

Let's look at some molecules and their measured TGI.
- System: TK-10 renal
- assay: NCI tumour cell line growth inhibition, 48 h

Before answering, review these 8 worked examples.
I am curious: what TGI value has been reported for COc1ccccc1C(=O)NO ?
> 100 µM

Lookup COc1ccc2c(=O)cc(-c3ccc(OC)c(OC)c3OC)oc2c1
> 100 µM

Lookup CSc1nc2nn(Cc3ccccc3)cc2c(=O)[nH]1
> 100 µM

Lookup COC(=O)c1cc(=O)n(-c2ccc3nn(C)nc3c2)cc1C(=O)OC
> 100 µM

Lookup COc1ccc2[nH]c3c(c2c1)CC(=O)N1CCCC(CC3O)C1 (configuration not stated)
> 100 µM

Lookup CC(O)CN1c2ccccc2Sc2ccccc21 (configuration not stated)
> 100 µM

Lookup CC(NCc1c(O)ccc2ccc(=O)oc12)C(=O)O (configuration not stated)
> 100 µM

Lookup Cc1ccc(OCC2OC(n3cnc4nc(Nc5ccc(Cl)c(Cl)c5)nc(Cl)c43)CC2Oc2ccc(C)cc2)cc1 (configuration not stated)
> 100 µM

Further cases:
I am curious: what TGI value has been reported for O=C1C2CCCCC2C(=O)N1n1c(-c2ccccc2)n[nH]c1=O (configuration not stated) ?
> 100 µM

Lookup CCOc1ccc(/C=C/c2cc(OC)c(OC)c(OC)c2)cc1
> 100 µM

Lookup OC[C@H]1NC[C@@H](O)[C@@H](O)[C@H]1O
> 100 µM

Lookup O=C(Cc1nc2ccccc2o1)C(=O)Nc1cccc(Cl)c1
> 100 µM

Lookup N#Cc1c(NC(=O)c2ccc(F)cc2)sc2c1CCCC2
> 25 µM

Lookup O=C(O)CC(NC(=O)/C(=C/c1ccccc1)NC(=O)c1ccccc1)C(=O)O (configuration not stated)
> 100 µM

Lookup CCOC(=O)Cn1c2ccc(Br)cc2c2nc3ccccc3nc21
> 100 µM
